experiment: Plasma pharmacokinetics and food effect, part C; format: in vivo, human; settings: human, plasma, oral, 45 mg/day, day 4, fed, n = 15, read-out: Mean t½ (% CV) (converted)
quantity: half-life

[[record]]
smiles_code = "Cn1cc(-c2cc(S(C)(=O)=O)ccc2OCC2CC2)c2ccccc2c1=O"
quantity = "half-life"
assay_result = "67.8 h"


---

assay: Plasma pharmacokinetics and food effect, part C; assay type: in vivo, human; conditions: human, plasma, oral, 45 mg/day, day 4, fasted, n = 15, read-out: AUCinf, GM (% GCV)
quantity: AUC(0-inf) (ng·h/mL)

[[record]]
compound = "Cn1cc(-c2cc(S(C)(=O)=O)ccc2OCC2CC2)c2ccccc2c1=O [trotabresib]"
quantity = "AUC(0-inf)"
assay_result = 66500


---

assay: Plasma pharmacokinetics and food effect, part C; format: in vivo, human; conditions: human, plasma, oral, 45 mg/day, day 4, fed, n = 14, read-out: AUC0–24, GM (% GCV)
quantity: AUC(0-t) (ng·h/mL)

[[record]]
smiles_code = "Cn1cc(-c2cc(S(C)(=O)=O)ccc2OCC2CC2)c2ccccc2c1=O"
quantity = "AUC(0-t)"
assay_result = 16800


---

experiment: Clinical plasma and CSF pharmacokinetics, part A; format: in vivo; conditions: human, CSF, oral; one subject; read-out: average time matched CSF/plasma ratio
quantity: Kp

[[record]]
smiles_code = "Cn1cc(-c2cc(S(C)(=O)=O)ccc2OCC2CC2)c2ccccc2c1=O"
assay_result = 0.066


---

Assay: Plasma pharmacokinetics and food effect, part C
Assay type: in vivo, human
Conditions: human, plasma, oral, 45 mg/day, day 4, fed, n = 15, read-out: AUCinf, GM (% GCV)
Protocol: Response was assessed using Response Evaluation Criteria in Solid Tumors (RECIST) v1.1[54] in patients with solid tumors, International Working Group criteria in patients with DLBCL[55], and Response Assessment in Neuro-Oncology (RANO) criteria[56] in patients with CNS tumors (astrocytoma and glioblastoma). […] PK parameters assessed included Cmax, tmax, AUC, t½, apparent clearance (CL/F), and apparent volume of distribution (Vz/F). […]
quantity: AUC(0-inf)

[[record]]
molecule = "Cn1cc(-c2cc(S(C)(=O)=O)ccc2OCC2CC2)c2ccccc2c1=O [trotabresib]"
assay_result = "67200 ng·h/mL"


---

assay: Clinical plasma and CSF pharmacokinetics, part A; format: in vivo; conditions: human, in vivo; part A, across all dose levels, Day 1 and last dose; read-out: median tmax
quantity: Tmax

[[record]]
smiles_code = "Cn1cc(-c2cc(S(C)(=O)=O)ccc2OCC2CC2)c2ccccc2c1=O"
quantity = "Tmax"
assay_result = "1 to 2 h"


---

experiment: Plasma pharmacokinetics and food effect, part C; format: in vivo, human; conditions: human, plasma, oral, 45 mg/day, day 4, fed, n = 15, read-out: Vss/F, GM (% GCV)
quantity: Vd/F (L)

[[record]]
compound = "Cn1cc(-c2cc(S(C)(=O)=O)ccc2OCC2CC2)c2ccccc2c1=O [trotabresib]"
quantity = "Vd/F"
assay_result = 228


---

assay: Plasma pharmacokinetics and food effect, part C; assay type: in vivo, human; conditions: human, plasma, oral, 45 mg/day, day 4, fasted, n = 15, read-out: Mean t½ (% CV) (converted)
quantity: half-life (h)

[[record]]
smiles_code = "Cn1cc(-c2cc(S(C)(=O)=O)ccc2OCC2CC2)c2ccccc2c1=O"
assay_result = 69.1

